Test system: FLK-1 receptor
Assay: FLK-1 Assay (cellular/catalytic ELISA, VEGF-stimulated phosphotyrosine)
Assay type: cell-based
Design: concentration or dose not given beside the values
Settings: protocol P.110
Here the recorded Flk Kinase % Inhibition (P.110) is given for each entry.
Endpoint Name: Flk Kinase % Inhibition (P.110) (%)

[[record]]
compound = "O=C1Nc2ccc(S(=O)(=O)N3CCOCC3)cc2C1=Cc1ccnc2ccccc12 [10740/F03]"
value_observed = "−0.9"

[[record]]
compound = "COc1ccccc1C=C1C(=O)Nc2ccc(S(=O)(=O)Nc3ccc(C(F)(F)F)cc3)cc21 [10738/E09]"
value_observed = 21.2

[[record]]
compound = "COc1ccc(Oc2cccc(C=C3C(=O)Nc4ccc(I)cc43)c2)cc1 [10739/B08]"
value_observed = 6.5

[[record]]
compound = "Cc1c(Br)ccc2c1C(=Cc1cc(Br)cs1)C(=O)N2 [10740/C10]"
value_observed = 0.8

[[record]]
compound = "Cc1c(Br)cc(Br)c2c1C(=Cc1cn(C)c3ccccc13)C(=O)N2 [10740/H07]"
value_observed = 10.1

[[record]]
compound = "O=C1Nc2c(Br)cc(Br)cc2C1=Cc1cccc(Oc2ccc(Cl)c(Cl)c2)c1 [10738/A03]"
value_observed = 12.8

[[record]]
compound = "O=C1Nc2ccc(S(=O)(=O)N3CCOCC3)cc2C1=Cc1cccc(F)c1F [10737/F05]"
value_observed = 18.4

[[record]]
compound = "CC(C)(C)c1ccc(Oc2cccc(C=C3C(=O)Nc4ccc(CCCl)cc43)c2)cc1 [10737/G10]"
value_observed = 13.3

[[record]]
compound = "O=C1Nc2ccc(S(=O)(=O)N3CCOCC3)cc2C1=Cc1cc(O)ccc1[N+](=O)[O-] [10738/F05]"
value_observed = 3.3

[[record]]
compound = "CNS(=O)(=O)c1ccc2c(c1)C(=Cc1ccccc1OC)C(=O)N2 [10738/D09]"
value_observed = 9.4

[[record]]
compound = "O=C1Nc2c(Br)cc(Br)cc2C1=Cc1ccc(OCc2ccccc2)cc1 [10739/A04]"
value_observed = "−8.2"

[[record]]
compound = "O=C1Nc2ccc(CCCl)cc2C1=Cc1cccc(Oc2ccc(Cl)c(Cl)c2)c1 [10738/G03]"
value_observed = "−4.1"

[[record]]
compound = "O=C1Nc2ccc(S(=O)(=O)N3CCOCC3)cc2C1=Cc1cccc(OCc2ccccc2)c1 [10739/F03]"
value_observed = 24.5

[[record]]
compound = "Cc1c(Br)ccc2c1C(=Cc1cc(O)ccc1[N+](=O)[O-])C(=O)N2 [10738/C05]"
value_observed = "−4.4"

[[record]]
compound = "Cc1c(Br)ccc2c1C(=Cc1ccc3ccccc3n1)C(=O)N2 [10740/C06]"
value_observed = "−19.1"

[[record]]
compound = "O=C1Nc2ccc(I)cc2C1=Cc1ccc(O)cc1Cl [10739/B06]"
value_observed = 9.3

[[record]]
compound = "Cc1ccc(C=C2C(=O)Nc3ccc(S(=O)(=O)N4CCOCC4)cc32)c(C)c1 [10737/F03]"
value_observed = 16.3

[[record]]
compound = "O=C1Nc2ccc(I)cc2C1=Cc1cccc(OCc2ccccc2)c1 [10739/B03]"
value_observed = 3.5

[[record]]
compound = "Cc1c(Br)ccc2c1C(=Cc1ccnc3ccccc13)C(=O)N2 [10740/C03]"
value_observed = "−129.3"

[[record]]
compound = "Cc1ccc(Oc2cccc(C=C3C(=O)Nc4c(Br)cc(Br)c(C)c43)c2)cc1 [10738/H02]"
value_observed = "−14.6"

[[record]]
compound = "O=C1Nc2ccc(S(=O)(=O)Nc3ccc(C(F)(F)F)cc3)cc2C1=Cc1cccc(Oc2cccc(C(F)(F)F)c2)c1 [10737/E11]"
value_observed = 18.3

[[record]]
compound = "CNS(=O)(=O)c1ccc2c(c1)C(=Cc1ccc(OC)c(F)c1)C(=O)N2 [10737/D06]"
value_observed = 13.0

[[record]]
compound = "O=C1Nc2ccc(S(=O)(=O)Nc3ccc(C(F)(F)F)cc3)cc2C1=Cc1ccnc2ccccc12 [10740/E03]"
value_observed = 0.2

[[record]]
compound = "Cc1c(Br)ccc2c1C(=Cc1cccc(F)c1F)C(=O)N2 [10737/C05]"
value_observed = "−3.3"

[[record]]
compound = "Cc1c(Br)cc(Br)c2c1C(=Cc1ccccc1C(F)(F)F)C(=O)N2 [10736/H03]"
value_observed = 15.1

[[record]]
compound = "COc1ccc(C=C2C(=O)Nc3ccc(I)cc32)cc1O [10738/B04]"
value_observed = 55.0

[[record]]
compound = "CCOc1ccc(C=C2C(=O)Nc3ccc(S(=O)(=O)NC)cc32)cc1 [10737/D02]"
value_observed = 10.6

[[record]]
compound = "Cc1c(Br)ccc2c1C(=Cc1ccc3ccccc3c1)C(=O)N2 [10737/C08]"
value_observed = 8.9

[[record]]
compound = "COC1CCCN1C=C1C(=O)Nc2ccc(CCCl)cc21 (stereo not drawn) [10740/G04]"
value_observed = "−5.1"

[[record]]
compound = "O=C1Nc2c(Br)cc(Br)cc2C1=Cc1ccc(Oc2ccccc2)cc1 [10737/A09]"
value_observed = "−10.1"

[[record]]
compound = "O=C1Nc2ccc(CCCl)cc2C1=Cc1ccc(OCc2ccccc2)cc1 [10739/G04]"
value_observed = 4.5

[[record]]
compound = "CC(C)(C)c1ccc(Oc2cccc(C=C3C(=O)Nc4ccc(S(=O)(=O)N5CCOCC5)cc43)c2)cc1 [10737/F10]"
value_observed = 26.1

[[record]]
compound = "Cc1c(Br)cc(Br)c2c1C(=Cc1ccc(O)cc1Cl)C(=O)N2 [10739/H06]"
value_observed = 35.6

[[record]]
compound = "COc1ccc(C=C2C(=O)Nc3ccc(CCCl)cc32)cc1C [10739/G02]"
value_observed = 5.9

[[record]]
compound = "Cc1c(Br)cc(Br)c2c1C(=Cc1cccc(Oc3ccc(Cl)c(Cl)c3)c1)C(=O)N2 [10738/H03]"
value_observed = "−6.2"

[[record]]
compound = "Cc1[nH]c2ccccc2c1C=C1C(=O)Nc2ccc(S(=O)(=O)N3CCOCC3)cc21 [10740/F08]"
value_observed = "−5.0"

